Experimental System: human glucagon receptor (human, UniProt P47871 26-477)
Test Name: cell-based or functional assay
Starred links: 1 amine or outer side, 2 acyl side, 3 side chain; linkers in the order of their positions; H or OH if unused. Non-standard residues stand in square brackets, D forms with d. No end group written: not given here. *: point of attachment. ACPP = 2-amino-5-(3-chlorophenyl)pentanoic acid, O=C([C@H](CCCc1cccc(Cl)c1)N[*:1])[*:2]; Bip(2'-Et-4'-OMe) = CCc1cc(OC)ccc1-c1ccc(C[C@H](N)C(=O)O)cc1; Leu(5,5,5,5',5',5'-F6) = N[C@@H](CC(C(F)(F)F)C(F)(F)F)C(=O)O; 2F‑APPA = 2-amino-5-(2-fluorophenyl)pentanoic acid; αMePhe(2-F) = C[C@](N)(Cc1ccccc1F)C(=O)O; hhPhe = N[C@@H](CCCc1ccccc1)C(=O)O; aThr = C[C@H](O)[C@H](N)C(=O)O; αMeP = C[C@@]1(C(=O)O)CCCN1; CNB = not defined here; Aib = CC(C)(N)C(=O)O; Moc = COC(=O)*

Binder	Unit	inhibition of cAMP production, 1 µM
H[αMeP]QGTFTSD[Bip(2'-Et-4'-OMe)][ACPP] [Seq. ID. No. 11: H-(α-Me-Pro)-QGTFTSD-Bip(OMe)-(ACPP)]	pmol/ml/µg prt	0
H[Aib][Leu(5,5,5,5',5',5'-F6)]GT[αMePhe(2-F)][aThr]SD[Bip(2'-Et-4'-OMe)][hhPhe] [Seq. ID. No. 225: H-Aib-(Hfl)-GT-(α-Me-2F-Phe)-T(allo)-SD-Bip(OMe)-(APPA)]	pmol/ml/µg prt	0
Moc-H[Aib]QG[aThr][αMePhe(2-F)][aThr]SD[Bip(2'-Et-4'-OMe)][2F‑APPA] (also: reduced (CH2) bond between 10 and 11) [Seq. ID. No. 188: CH3OCO-H-Aib-QG-T(allo)-(α-Me-2F-Phe)-T(allo)-SD-Bip(OMe)-(CH2)-(2F-APPA)]	pmol/ml/µg prt	0
Moc-H[Aib][CNB]GT[αMePhe(2-F)]TSD[Bip(2'-Et-4'-OMe)][2F‑APPA] (reading uncertain) [Seq. ID. No. 208: CH3OCO-H-Aib-(CNB)-GT-(α-Me-2F-Phe)-TSD-Bip(OMe)-(2F-APPA)]	pmol/ml/µg prt	0
H[Aib][CNB]G[aThr][αMePhe(2-F)][aThr]SD[Bip(2'-Et-4'-OMe)][hhPhe] (reading uncertain; also: reduced (CH2) bonds between 9-10 and 10-11) [Seq. ID. No. 202: H-Aib-(CNB)-G-T(allo)-(α-Me-2F-Phe)-T(allo)-SD-(CH2)-Bip(OMe)-(CH2)-(APPA)]	pmol/ml/µg prt	3
